Reported values of pKi for individual entries
target: hCA IX (Homo sapiens, UniProt Q16790)
pKi: −log10 of the molar value.
Measure: pKi

Compound: CCOC(=O)c1ccc(NC(=S)NC(=O)c2cccc(NC(=O)C(C)C)c2)cc1 [Compound 9b]
Target: hCA IX (Homo sapiens, UniProt Q16790)
Measure: pKi
Endpoint Value: 6.52
--
Compound: CC(=O)Nc1cccc(C(=O)NC(=S)Nc2ccc(S(N)(=O)=O)cc2)c1 [Compound 7a]
Target: hCA IX (Homo sapiens, UniProt Q16790)
Measure: pKi
Endpoint Value: 6.62
--
Compound: CCOC(=O)c1ccc(NC(=S)NC(=O)c2ccc(NC(C)=O)cc2)cc1 [Compound 9d]
Target: hCA IX (Homo sapiens, UniProt Q16790)
Measure: pKi
Endpoint Value: 5.79
--
Compound: CC(=O)Nc1ccc(C(=O)NC(=S)Nc2ccc(S(N)(=O)=O)cc2)cc1 [Compound 7d]
Target: hCA IX (Homo sapiens, UniProt Q16790)
Measure: pKi
Endpoint Value: 6.77
--
Compound: Cc1ccc(C(=O)Nc2cccc(C(=O)NC(=S)Nc3ccc(C(=O)O)cc3)c2)cc1 [Compound 8c]
Target: hCA IX (Homo sapiens, UniProt Q16790)
Measure: pKi
Endpoint Value: 6.58
--
Compound: CC(=O)Nc1cccc(C(=O)NC(=S)Nc2ccc(C(=O)O)cc2)c1 [Compound 8a]
Target: hCA IX (Homo sapiens, UniProt Q16790)
Measure: pKi
Endpoint Value: 6.68

// provenance: paper PMC9621292
